target: Cytochrome P450 3A4 (Homo sapiens)
Sequence (P08684 whole entry): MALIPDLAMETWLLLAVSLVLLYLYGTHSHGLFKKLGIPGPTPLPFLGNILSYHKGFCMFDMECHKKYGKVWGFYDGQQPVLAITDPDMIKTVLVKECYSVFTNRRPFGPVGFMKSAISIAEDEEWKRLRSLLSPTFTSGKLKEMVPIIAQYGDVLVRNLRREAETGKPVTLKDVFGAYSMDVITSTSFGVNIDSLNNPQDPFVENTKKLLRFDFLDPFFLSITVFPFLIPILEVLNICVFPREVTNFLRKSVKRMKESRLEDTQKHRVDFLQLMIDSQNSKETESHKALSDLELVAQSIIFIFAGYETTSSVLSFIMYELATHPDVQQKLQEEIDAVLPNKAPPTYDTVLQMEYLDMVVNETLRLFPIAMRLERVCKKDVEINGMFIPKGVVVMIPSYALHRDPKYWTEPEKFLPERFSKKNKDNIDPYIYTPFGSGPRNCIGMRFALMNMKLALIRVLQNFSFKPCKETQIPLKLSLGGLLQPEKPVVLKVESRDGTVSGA
observed_property: IC50

query: # return IC50 of `O=C(NOCCO)c1cc(CN2OCCCC2=O)c(F)c(F)c1Nc1ccc(I)cc1F` (system: Cytochrome P450 3A4 (Homo sapiens))
result: > 100 µM

###

experiment: Toxicity in human HT-29 cells xenografted BALB/c nu/nu mouse assessed as maximum tolerable dose; type: organism-based; settings: in vivo
MTD reference
Numeric only. Scale: mg/kg

query: Check the records and state MTD for `CC(C)(O)CO/N=C/c1cc(C(=O)NOCCO)c(Nc2ccc(I)cc2F)c(F)c1F`
result: 100

###

test: Half life in cynomolgus monkey at 3 mg/kg, po; type: ADME, organism-based, Macaca fascicularis; parameters: dose 3 mg/kg, route oral; conditions: in vivo
observed_property: half-life (h)
Numeric only. Scale: h

query: Check the records and state half-life for O=C(NOCCO)c1cc(CN2OCCCC2=O)c(F)c(F)c1Nc1ccc(I)cc1F [RO-4987655]
result: 6

###

assay: Half life in human liver microsomes at 1 uM; assay type: ADME, Microsome
observed_property: half-life at 1 µM

Known half-life at 1 µM results, listed for orientation:
> print(dat)
                               given.smiles  value.measured
1  CON(Cc1cc(C(=O)NOCCO)c(Nc2ccc(I)cc2F)c(F)c1F)C(C)=O          1.07 h
2  O=C(NOCCO)c1cc(CN2CCOC2=O)c(F)c(F)c1Nc1ccc(I)cc1F           > 6 h
3  O=C(NOCCO)c1cc(COCCO)c(F)c(F)c1Nc1ccc(I)cc1F           > 6 h

query: Check the records and state half-life at 1 µM for `CC(=O)NCCO/N=C/c1cc(C(=O)NOCCO)c(Nc2ccc(I)cc2F)c(F)c1F`
result: > 6 h

###

solubility at 2 h reference
assay: Solubility in 50 mM phosphate buffer at pH 6.5 after 2 hrs; assay type: physicochemical
Numeric only. Scale: µM

query: Check the records and state solubility at 2 h for `O=C(NOCCO)c1cc(CN2CCOC2=O)c(F)c(F)c1Nc1ccc(I)cc1F`
result: 284

query: Check the records and state solubility at 2 h for `CS(=O)(=O)CCO/N=C/c1cc(C(=O)NOCCO)c(Nc2ccc(I)cc2F)c(F)c1F`
result: 1

###

half-life reference
experiment: Half life in cynomolgus monkey at 6 mg/kg, po; type: ADME, organism-based, Macaca fascicularis; set-up: dose 6 mg/kg, route oral; details: in vivo
Numeric only. Scale: min

> print(dat)
                                   compound  observed.property  value.measured
1  O=C(NOC[C@H](O)CO)c1ccc(F)c(F)c1Nc1ccc(I)cc1F [MIRDAMETINIB]          half-life             330

query: Check the records and state half-life for O=C(NOCCO)c1cc(CN2OCCCC2=O)c(F)c(F)c1Nc1ccc(I)cc1F [RO-4987655]
result: 300

###

half-life at 1 µM reference
assay: Half life in mouse liver microsomes at 1 uM; assay type: ADME, Microsome
Numeric only. Scale: h

> print(dat)
                               given.smiles  result.units  value.measured
1  O=C(NOCCO)c1cc(CNOCCO)c(F)c(F)c1Nc1ccc(I)cc1F             h            2.13
2  CON(Cc1cc(C(=O)NOCCO)c(Nc2ccc(I)cc2F)c(F)c1F)C(C)=O             h             0.6

Moving on to another molecule below.
query: Check the records and state half-life at 1 µM for `C#Cc1ccc(Nc2c(C(=O)NOCCO)cc(/C=N/OCCO)c(F)c2F)c(F)c1`
result: 2.25
